# Test system: LOX IMVI
# ASSAY PROTOCOL: NCI tumour cell line growth inhibition, 48 h
Active and inactive are the calls of the source. No stated cut-off is given here; in the data, active = GI50 up to about 1.1 µM and inactive = higher.
Log the outcome using a class from active, inactive

Examples with answers:
CN(C)C(=O)OC(Cn1cncn1)(Cn1cncn1)c1ccc(Cl)cc1Cl :: inactive
Cc1ccc(NC(=O)C2C(=O)N(c3ccc(C)c(C)c3)C(=O)/C2=N\NC(N)=O)cc1C (stereo not given) :: inactive
O=C(Oc1ccc(C(c2c(O)c3ccccc3oc2=O)c2c(O)c3ccccc3oc2=O)cc1)c1ccc(C(=O)c2ccccc2)cc1 :: inactive
Nc1nc(Cl)cc(NCC2(CO)CCCCC2)n1 :: inactive
CSc1nncc2[nH]c(C)nc12 :: inactive

Just curious, what result did COc1ccc(C[C@@H]2OC3(C=CC(=O)CC3Sc3ccccc3)O[C@H]2Cc2ccc(OC)cc2)cc1 (stereo not given in full) get here? active

Just curious, what result did COC(=O)C1CC/C(=N\c2cccc(C(F)(F)F)c2)N1 (stereo not given) get here? inactive

Just curious, what result did `COC(=O)/C=C\C(C#N)(C#N)/N=C/c1ccc(Br)s1` get here? inactive

Just curious, what result did NC(CCCCCP(=O)(c1ccccc1)C1C=CC=CC1)C(=O)O (stereo not given) get here? inactive

Just curious, what result did COc1cc(/C=C2/SC(c3ccccc3)N(c3ccc(NC(C)=O)cc3)C2=O)cc(OC)c1OC (stereo not given) get here? inactive
